target: T1, human transferrin receptor (hTfR) (human, UniProt P02786 89-760); experiment: SPR (Biacore T200), pH 7.4, hTfR on chip
T1 construct: Recombinant hTfR; at pH 7.4 captured on the chip by an anti-His tag antibody, at pH 6.0 immobilized on an NTA chip, so it carries a His tag; also called human TfR; TfR1
T1 sequence (P02786 89-760 limits assumed): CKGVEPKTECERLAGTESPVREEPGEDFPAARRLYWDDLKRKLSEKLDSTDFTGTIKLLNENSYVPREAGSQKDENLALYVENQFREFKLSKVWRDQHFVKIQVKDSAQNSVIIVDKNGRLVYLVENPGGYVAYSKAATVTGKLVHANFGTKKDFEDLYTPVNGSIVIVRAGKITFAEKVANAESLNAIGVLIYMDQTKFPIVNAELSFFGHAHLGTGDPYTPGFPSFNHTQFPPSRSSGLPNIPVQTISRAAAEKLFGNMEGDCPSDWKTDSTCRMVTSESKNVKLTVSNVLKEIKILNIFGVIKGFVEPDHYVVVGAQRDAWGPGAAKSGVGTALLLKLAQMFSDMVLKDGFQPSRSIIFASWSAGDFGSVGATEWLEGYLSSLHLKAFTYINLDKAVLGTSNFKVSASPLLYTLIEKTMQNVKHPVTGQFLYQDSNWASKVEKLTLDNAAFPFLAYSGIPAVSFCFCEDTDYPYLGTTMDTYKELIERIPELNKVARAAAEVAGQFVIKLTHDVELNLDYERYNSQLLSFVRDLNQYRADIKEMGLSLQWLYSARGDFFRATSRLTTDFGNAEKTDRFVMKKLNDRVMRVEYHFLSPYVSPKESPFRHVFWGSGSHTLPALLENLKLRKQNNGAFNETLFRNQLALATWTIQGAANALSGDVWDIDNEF
pKd: −log10 of the molar value. Bridge positions count the residues as written; N and C are the ends. Square brackets hold non-standard residues; d marks the D form. Ends that are not written are not given here. NMePhe(4-COOH) = CN[C@@H](Cc1ccc(C(=O)O)cc1)C(=O)O; 3Pal(6-NH2) = Nc1ccc(C[C@H](N)C(=O)O)cn1; NMeW = CN[C@@H](Cc1c[nH]c2ccccc12)C(=O)O; NMeY = CN[C@@H](Cc1ccc(O)cc1)C(=O)O; Nva(3-Et) = CCC(CC)[C@H](N)C(=O)O; NMeF = CN[C@@H](Cc1ccccc1)C(=O)O
Threshold check on pKd: at or above 8 gives t, strictly below gives f.

binder | labelClass
{CH2CO}-AV[NMeF]V[NMeW]NYY[Nva(3-Et)]IKRY[NMePhe(4-COOH)]C (thioether N-15; not fully specified (C-terminus)) [894_0593] | t
AVXVXNYYIIKRXXC (not fully specified; as printed: A-V-MeF3C-V-W1Me-N-Y-Y-I-I-K-R-4Py-MeY-C; linker PEG4c; cyclic (ClAc-Ala1 thioether to Cys15)) [894_0607] | t
{CH2CO}-AV[NMeF]V[NMeW]N[3Pal(6-NH2)]YI[code s]KRY[NMeY]C (thioether N-15; also: linker PEG4c attached, place not given here, Position 10 is printed as lower-case 's') [894_0619] | f
